# Tested system: Full length Human HDAC8 (Homo sapiens, UniProt Q9BY41)
# Sequence (Q9BY41 whole entry): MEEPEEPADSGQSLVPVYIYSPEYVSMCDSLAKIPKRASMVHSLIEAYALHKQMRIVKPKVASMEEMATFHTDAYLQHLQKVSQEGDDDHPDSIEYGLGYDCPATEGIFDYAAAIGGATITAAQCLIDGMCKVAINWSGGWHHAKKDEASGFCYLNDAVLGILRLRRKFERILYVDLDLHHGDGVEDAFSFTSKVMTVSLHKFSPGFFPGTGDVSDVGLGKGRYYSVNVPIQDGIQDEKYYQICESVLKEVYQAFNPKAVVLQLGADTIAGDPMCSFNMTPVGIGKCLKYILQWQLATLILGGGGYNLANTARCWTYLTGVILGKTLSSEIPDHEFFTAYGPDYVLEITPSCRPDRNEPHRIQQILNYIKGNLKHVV
pIC50: −log10 of the molar value.
pIC50 listing for selected molecules.

Examples with answers:
- O=C(NO)c1ccc(CN2C3CCC2COC3)c(F)c1: 6.00 to 7.00
- O=C(NO)c1ccc(CN2CCOCC2)c(F)c1: 6.00 to 7.00
- O=C(NO)c1ccc(CN2CCC3(CCCCC3)CC2)c(F)c1: 5.00 to 6.00

Ask: Under Full length Human HDAC8 (Homo sapiens, UniProt Q9BY41): pIC50 value of O=C(NO)c1cc(F)c2c(c1)C[C@@H]1CCCCN1C2 (single isomer, unassigned) ?
Reply: 5.00 to 6.00

Ask: Input O=C(NO)c1ccc(CN2CCCC3(C2)C2CC4CC(C2)CC3C4)c(F)c1 (stereo not shown)
Reply: 5.00 to 6.00

// data source = patent US12528767B2
